Molecular target: T1, mfNPR1-mFc (monkey)
T1 construct: also called dimeric monkey NPR1
T1 chain: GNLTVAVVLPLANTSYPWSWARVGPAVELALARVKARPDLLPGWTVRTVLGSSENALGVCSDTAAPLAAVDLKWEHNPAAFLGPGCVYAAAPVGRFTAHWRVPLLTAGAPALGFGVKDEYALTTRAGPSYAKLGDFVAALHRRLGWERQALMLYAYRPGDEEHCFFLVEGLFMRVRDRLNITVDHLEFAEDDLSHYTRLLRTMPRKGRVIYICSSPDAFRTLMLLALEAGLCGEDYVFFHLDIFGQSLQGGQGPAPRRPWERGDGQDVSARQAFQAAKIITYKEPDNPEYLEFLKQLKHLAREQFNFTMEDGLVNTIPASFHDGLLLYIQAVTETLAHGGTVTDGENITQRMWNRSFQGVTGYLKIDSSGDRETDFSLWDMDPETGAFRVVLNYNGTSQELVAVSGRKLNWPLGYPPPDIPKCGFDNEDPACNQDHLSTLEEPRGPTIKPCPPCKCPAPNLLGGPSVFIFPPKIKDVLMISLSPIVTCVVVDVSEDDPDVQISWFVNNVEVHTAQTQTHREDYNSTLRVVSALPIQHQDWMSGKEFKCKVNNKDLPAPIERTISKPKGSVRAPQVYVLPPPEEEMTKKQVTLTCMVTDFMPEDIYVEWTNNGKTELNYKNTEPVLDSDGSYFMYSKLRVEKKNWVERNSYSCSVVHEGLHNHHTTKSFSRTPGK
Assay: SPR, mAb captured, 25C
property_measured: log10(t½) (log10 of the value in h)
In our notation, the value equals log10 of t½ in h.

Some entries whose results are on file:
{"columns": ["binder", "log10(t½)"],
 "data": [
  ["mAb25502 (antibody, human IgG4, V domains shown) VH: QLQLQESGPGLVKPSETLSLTCTVSGGSISSSSYYWGWIRQPPGKGLEWIGSIYYSGSPYYIPSLKSRVTISVDTSKNQFSLKLSSVTAADTAMYYCARQGRGIARAGPFDYWGQGTLVTVSS VL: DIQMTQSPSSLSASVGDRVTITCRASQGISNYLAWYQEKPGKVPKLLIYAASTLQSGVPSRFSGSGSGTDFTLTITSLQSEDVATYYCQKYNSAPPWTFGQGTKVEIK", 0.14],
  ["mAb25508 (antibody, human IgG4, V domains shown) VH: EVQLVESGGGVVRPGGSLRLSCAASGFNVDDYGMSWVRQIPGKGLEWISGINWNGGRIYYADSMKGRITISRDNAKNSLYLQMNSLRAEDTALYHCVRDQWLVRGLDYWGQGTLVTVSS VL: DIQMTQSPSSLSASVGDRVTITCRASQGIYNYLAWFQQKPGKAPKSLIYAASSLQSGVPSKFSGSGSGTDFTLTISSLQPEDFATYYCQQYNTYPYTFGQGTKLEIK", 0.51],
  ["mAb25497 (antibody, human IgG4, V domains shown) VH: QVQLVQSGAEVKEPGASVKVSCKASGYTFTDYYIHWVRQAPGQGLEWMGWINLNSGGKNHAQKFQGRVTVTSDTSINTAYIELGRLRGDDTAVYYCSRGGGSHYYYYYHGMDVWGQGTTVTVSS VL: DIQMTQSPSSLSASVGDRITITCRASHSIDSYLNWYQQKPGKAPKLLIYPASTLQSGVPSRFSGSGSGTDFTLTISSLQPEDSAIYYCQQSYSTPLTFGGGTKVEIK", 0.52],
  ["mAb22035 (antibody, human IgG4, V domains shown) VH: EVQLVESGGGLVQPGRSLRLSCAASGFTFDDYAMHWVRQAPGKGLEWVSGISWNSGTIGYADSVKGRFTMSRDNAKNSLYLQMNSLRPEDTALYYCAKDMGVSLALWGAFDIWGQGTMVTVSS VL: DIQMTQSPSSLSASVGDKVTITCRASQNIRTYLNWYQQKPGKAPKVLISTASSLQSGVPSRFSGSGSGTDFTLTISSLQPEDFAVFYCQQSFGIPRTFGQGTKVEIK", 0.54],
  ["mAb25479 (antibody, human IgG4, V domains shown) VH: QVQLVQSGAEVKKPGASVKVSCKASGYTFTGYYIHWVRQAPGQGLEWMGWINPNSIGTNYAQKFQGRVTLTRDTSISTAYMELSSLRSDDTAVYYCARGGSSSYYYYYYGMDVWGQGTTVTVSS VL: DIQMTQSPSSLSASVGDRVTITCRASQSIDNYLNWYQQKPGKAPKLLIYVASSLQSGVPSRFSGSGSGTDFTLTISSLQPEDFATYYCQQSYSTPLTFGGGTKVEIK", -0.42]
]}

Prompt line: Name the reported log10(t½) value associated with the binder mAb22033 (antibody, human IgG4, V domains shown) VH: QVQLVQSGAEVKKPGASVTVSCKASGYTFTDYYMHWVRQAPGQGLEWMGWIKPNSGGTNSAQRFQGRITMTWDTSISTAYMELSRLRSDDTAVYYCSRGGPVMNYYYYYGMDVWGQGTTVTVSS VL: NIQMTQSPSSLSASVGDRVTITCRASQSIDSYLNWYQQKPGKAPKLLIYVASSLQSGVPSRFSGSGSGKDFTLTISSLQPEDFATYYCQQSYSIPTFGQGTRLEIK
Response line: 0.60

Prompt line: Please look up its log10(t½): mAb25491 (antibody, human IgG4, V domains shown) VH: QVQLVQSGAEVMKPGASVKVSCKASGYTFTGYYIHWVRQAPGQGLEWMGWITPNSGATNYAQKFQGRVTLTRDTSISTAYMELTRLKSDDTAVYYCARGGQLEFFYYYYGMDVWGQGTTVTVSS VL: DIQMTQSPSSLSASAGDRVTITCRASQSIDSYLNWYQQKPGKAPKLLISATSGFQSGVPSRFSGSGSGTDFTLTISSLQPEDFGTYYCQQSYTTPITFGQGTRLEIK
Response line: 0.41
